Entries and their IC50
Subject Of Test: BTK, recombinant human catalytic domain (aa 393-659) (Homo sapiens (Human), UniProt Q06187)
Sequence (Q06187 393-659): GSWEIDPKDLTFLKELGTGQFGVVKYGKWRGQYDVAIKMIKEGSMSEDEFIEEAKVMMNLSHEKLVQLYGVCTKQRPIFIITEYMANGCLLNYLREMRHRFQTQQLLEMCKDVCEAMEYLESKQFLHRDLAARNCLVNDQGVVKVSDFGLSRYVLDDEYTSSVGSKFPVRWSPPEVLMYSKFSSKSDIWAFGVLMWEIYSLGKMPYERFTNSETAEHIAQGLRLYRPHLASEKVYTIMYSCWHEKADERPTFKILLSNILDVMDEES
Test: In vitro BTK kinase activity measured by time-resolved fluorescence resonance energy transfer (trFRET)
Type: biochemical
Measurement Parameters: read-out: Btk IC50

Consider the reported IC50 for these compounds:
| Smiles Record | IC50 |
| --- | --- |
| Cc1cnc(C(=O)Nc2cccc(-c3ccc(C(N)=O)c4[nH]c(C5=CCN(S(C)(=O)=O)CC5)cc34)c2C)s1 | < 100 nM |
| C=CC(=O)N1CC(N(C)c2ccc(C(N)=O)c3[nH]c(-c4ccc5c(c4)OCCC5)cc23)C1 | < 100 nM |
| Cn1cc(-c2cc3c(N4CCC[C@@H](NC(=O)c5ccc(C(C)(C)C)cc5)C4)ccc(C(N)=O)c3[nH]2)cn1 | < 100 nM |
| C=CC(=O)N1CC(N(C)c2ccc(C(N)=O)c3[nH]c(-c4ccnn4C)cc23)C1 | < 100 nM |
| C=CC(=O)N1CC(N(C)c2ccc(C(N)=O)c3[nH]c(-c4cn(C)nc4C)cc23)C1 | < 100 nM |

Req: Name the recorded IC50 for CC(=O)C(=O)Nc1cccc(-c2ccc(C(N)=O)c3[nH]ccc23)c1 .
Resp: 100 to 1000 nM

Req: Name the recorded IC50 for C=CC(=O)N1CCOC[C@H](c2cnc(C(N)=O)c3[nH]ccc23)C1 .
Resp: 100 to 1000 nM

Req: Name the recorded IC50 for Cc1c(NC(=O)CCN2CCCC2)cccc1-c1ccc(C(N)=O)c2[nH]c(C3=CCN(S(C)(=O)=O)CC3)cc12 .
Resp: < 100 nM

Req: Name the recorded IC50 for Cn1cc(-c2cc3c(N4CCC[C@@H](N5Cc6ccc(F)cc6C5=O)C4)ccc(C(N)=O)c3[nH]2)cn1 .
Resp: 1000 to 10000 nM

Req: Name the recorded IC50 for Cc1c(NC(=O)CF)cccc1-c1ccc(C(N)=O)c2[nH]c(C3=CCN(S(C)(=O)=O)CC3)cc12 .
Resp: < 100 nM

Req: Name the recorded IC50 for C=CC(=O)N1CC(N(C)c2ccc(C(N)=O)c3[nH]c([C@@H]4CCOC4)cc23)C1 .
Resp: < 100 nM

Req: Name the recorded IC50 for C=CC(=O)N1CC([C@H](C)c2ncc(C(N)=O)c3[nH]ccc23)C1 .
Resp: 100 to 1000 nM

Req: Name the recorded IC50 for Cc1c(NC(=O)/C=C/CN2CCOCC2)cccc1-c1ccc(C(N)=O)c2[nH]ccc12 .
Resp: 1000 to 10000 nM

Req: Name the recorded IC50 for Cc1c(NC(=O)/C=C\Cl)cccc1-c1ccc(C(N)=O)c2[nH]c(C3=CCN(S(C)(=O)=O)CC3)cc12 .
Resp: < 100 nM

Req: Name the recorded IC50 for C=CC(=O)N1C[C@@H](CO)C[C@H](c2ccc(C(N)=O)c3[nH]ccc23)C1 .
Resp: 1000 to 10000 nM

Req: Name the recorded IC50 for C=CC(=O)Nc1cccc(-c2ncc(C(N)=O)c3[nH]ccc23)c1C .
Resp: < 100 nM

Req: Name the recorded IC50 for CC(=O)C(=O)NCc1cccc(-c2ccc(C(N)=O)c3[nH]ccc23)c1 .
Resp: 100 to 1000 nM

Req: Name the recorded IC50 for C=CC(=O)Nc1cc(-c2ccc(C(N)=O)c3[nH]ccc23)ccc1OCc1nccs1 .
Resp: 100 to 1000 nM

Req: Name the recorded IC50 for C=CC(=O)Nc1cc(-c2ccc(C(N)=O)c3[nH]ccc23)ccc1OCc1ccccc1 .
Resp: 1000 to 10000 nM

Req: Name the recorded IC50 for C=C(CN)C(=O)Nc1cccc(-c2ccc(C(N)=O)c3[nH]ccc23)c1 .
Resp: < 100 nM

Req: Name the recorded IC50 for C=CC(=O)N1CC(C)(N(C)c2ccc(C(N)=O)c3[nH]ccc23)C1 .
Resp: < 100 nM

Req: Name the recorded IC50 for C=CC(=O)Nc1ccc(Cl)c(-c2ccc(C(N)=O)c3[nH]ccc23)c1 .
Resp: < 100 nM

Req: Name the recorded IC50 for C=CC(=O)N1CC(N(C)c2ccc(C(N)=O)c3[nH]c(-c4cnn(C)c4)cc23)C1 .
Resp: < 100 nM

Req: Name the recorded IC50 for C=CC(=O)N1CC[C@H](c2ccc(C(N)=O)c3[nH]c(-c4cc5n(n4)CCOC5)cc23)C1 .
Resp: < 100 nM

Req: Name the recorded IC50 for Cc1c(NC(=O)/C=C/CN2CCCCC2)cccc1-c1ccc(C(N)=O)c2[nH]ccc12 .
Resp: 100 to 1000 nM

Req: Name the recorded IC50 for NC(=O)c1ccc(N2CCC[C@@H](NC(=O)Nc3nccs3)C2)c2cc[nH]c12 .
Resp: 1000 to 10000 nM

Req: Name the recorded IC50 for C=CC(=O)Nc1cc(F)c(F)c(-c2ccc(C(N)=O)c3[nH]ccc23)c1 .
Resp: < 100 nM

Attribution: patent US9567339B2
